Test system: Renilla luciferase RNA
assay.text: Barcoded aptazyme variant library screen: un-cleaved Renilla luciferase RNA by barcode read counts, HEK293-T cells
Type: cell-based
run.conditions: un-cleaved Renilla luciferase RNA, HEK293-T cells cultured with 1 mM theophylline (ON) over without theophylline (OFF); barcode read counts, triplicate
Would you mind labelling by Fold change in RNA expression between the ON state and the OFF state? At or over 2 fold is true (1), under is false (0).

>  <molecule>
RA005 (nucleic acid, expressed or natural sequence) DNA: GCGCGTCCTGGATTCGCGGAAACCGGAATACCAGCATCGTCTTGATGCCCTTGGAAGTCCGGCGCGTACATCCAGCTGACGAGTCCCAAATAGGACGAAACGCGC

>  <cat>
true (1)

$$$$
>  <molecule>
RA121 (nucleic acid, expressed or natural sequence) DNA: GCGCGTCCTGGATTCGAGAATACCAGCATCGTCTTGATGCCCTTGGAAGTCTCGCGGAAACGCGTACATCCAGCTGACGAGTCCCAAATAGGACGAAACGCGC

>  <cat>
false (0)

$$$$
>  <molecule>
RA216 (nucleic acid, expressed or natural sequence) DNA: GCGCGTCCTGGATTCGCGGAAACGCGTACATCCAGCTGACGAGTCAGTGATACCAGCATCGTCTTGATGCCCTTGGCAGCACTCCAAATAGGACGAAACGCGC

>  <cat>
false (0)

$$$$
>  <molecule>
RA065 (nucleic acid, expressed or natural sequence) DNA: GCTGTCACCGGAATACCAGCATCGTCTTGATGCCCTTGGAAGTCCGGTCTGATGAGTCCCAGAAGGACGAAACAGC

>  <cat>
false (0)

$$$$
>  <molecule>
RA102 (nucleic acid, expressed or natural sequence) DNA: GCGCGTCGGAATACCAGCATCGTCTTGATGCCCTTGGAAGTCCCTGGATTCGCGGAAACGCGTACATCCAGCTGACGAGTCCCAAATAGGACGAAACGCGC

>  <cat>
false (0)

$$$$
>  <molecule>
RA071 (nucleic acid, expressed or natural sequence) DNA: GCGCGTCCTGGATTCGCGGAAACGCGTACATCCAGCTGACGAGTCCCAAATAGGACGAAACGCGGAATACCAGCATCGTCTTGATGCCCTTGGAAGTCCGCGC

>  <cat>
false (0)

$$$$
>  <molecule>
RA040 (nucleic acid, expressed or natural sequence) DNA: GCGCGTCCTGGATTCGCGAGAATACCAGCATCGTCTTGATGCCCTTGGAAGTCTGAAACGCGTACATCCAGCTGACGAGTCCCAAATAGGACGAAACGCGC

>  <cat>
true (1)

$$$$
